# cytotoxicity at 10 µM listing for each entry below
PROCEDURE_SUMMARY: Toxicity liver stage against HepG2, at 10uM
Assay type: cell-based
Parameters: test concentration 10 uM, cell line HepG2-A16-CD81EGFP
CONDITION_SUMMARY: human, HepG2-A16-CD81EGFP cells; read-out: INHIBITION
READOUT_KIND: cytotoxicity at 10 µM (%)

compound=CC(C)(C)n1cc(C(=O)N2CCN(Cc3ccncc3)CC2)cn1 reported_result=-12.8
compound=CN(C)c1ccc(C(=O)NCc2cccnc2-n2cncn2)cc1F reported_result=2.84
compound=O=C(COc1coc(CN2CCCCC2)cc1=O)c1ccccc1 reported_result=8.44
compound=Cn1cc(CN2C[C@@H]3COC[C@]3(C(=O)NCCc3ccccc3)C2)cn1 reported_result=8.86
compound="CCOCCC(=O)N1CCCC(c2cc(C(F)(F)F)[nH]n2)C1 (centres undefined)" reported_result=-0.819
compound=CCCc1n[nH]cc1C(=O)N1CCC(c2nccn2CCOC)CC1 reported_result=-15.3
compound=CCn1cc(C(=O)N2CCCN(c3cccnn3)CC2)c2ccccc21 reported_result=-0.418
compound="Cc1cc(C)c(C)c(OCCCNC(=O)NC(C)c2nncn2C)c1 (centres undefined)" reported_result=-12.3
compound="O=S(=O)(N1CCOCC1)N1CCCC1Cn1cccn1 (centres undefined)" reported_result=-8.18
compound=CCn1ncc(-c2cc(C(F)F)n3nc(CCC(=O)O)nc3n2)c1C reported_result=-9.44
compound="Cc1cc(C)n(CC2CN(CC(=O)Nc3nncs3)CCO2)n1 (centres undefined)" reported_result=-2.97
compound=Cc1ccccc1C(C)(C)CNC(=O)CN(C)c1cnccn1 reported_result=-2.21
compound=Cc1ccc(NC2CCN(C(=O)c3ccc(F)c(C)c3)CC2)nn1 reported_result=2.37
compound="Cc1nc(CN2CCCC(NCc3cnc(C(C)(C)C)s3)C2)no1 (centres undefined)" reported_result=0.38
